molecular target: N-type calcium channels in HEK-293 cell (Homo sapiens); experiment: Test A: Calcium imaging, inhibition of N-type calcium channels (FLUO-3, 80 mM K+ depolarisation); settings: FLUO-3 charged recombinant HEK-293 cells, potassium depolarisation (80 mM K+)
Sequence (Q00975 whole entry): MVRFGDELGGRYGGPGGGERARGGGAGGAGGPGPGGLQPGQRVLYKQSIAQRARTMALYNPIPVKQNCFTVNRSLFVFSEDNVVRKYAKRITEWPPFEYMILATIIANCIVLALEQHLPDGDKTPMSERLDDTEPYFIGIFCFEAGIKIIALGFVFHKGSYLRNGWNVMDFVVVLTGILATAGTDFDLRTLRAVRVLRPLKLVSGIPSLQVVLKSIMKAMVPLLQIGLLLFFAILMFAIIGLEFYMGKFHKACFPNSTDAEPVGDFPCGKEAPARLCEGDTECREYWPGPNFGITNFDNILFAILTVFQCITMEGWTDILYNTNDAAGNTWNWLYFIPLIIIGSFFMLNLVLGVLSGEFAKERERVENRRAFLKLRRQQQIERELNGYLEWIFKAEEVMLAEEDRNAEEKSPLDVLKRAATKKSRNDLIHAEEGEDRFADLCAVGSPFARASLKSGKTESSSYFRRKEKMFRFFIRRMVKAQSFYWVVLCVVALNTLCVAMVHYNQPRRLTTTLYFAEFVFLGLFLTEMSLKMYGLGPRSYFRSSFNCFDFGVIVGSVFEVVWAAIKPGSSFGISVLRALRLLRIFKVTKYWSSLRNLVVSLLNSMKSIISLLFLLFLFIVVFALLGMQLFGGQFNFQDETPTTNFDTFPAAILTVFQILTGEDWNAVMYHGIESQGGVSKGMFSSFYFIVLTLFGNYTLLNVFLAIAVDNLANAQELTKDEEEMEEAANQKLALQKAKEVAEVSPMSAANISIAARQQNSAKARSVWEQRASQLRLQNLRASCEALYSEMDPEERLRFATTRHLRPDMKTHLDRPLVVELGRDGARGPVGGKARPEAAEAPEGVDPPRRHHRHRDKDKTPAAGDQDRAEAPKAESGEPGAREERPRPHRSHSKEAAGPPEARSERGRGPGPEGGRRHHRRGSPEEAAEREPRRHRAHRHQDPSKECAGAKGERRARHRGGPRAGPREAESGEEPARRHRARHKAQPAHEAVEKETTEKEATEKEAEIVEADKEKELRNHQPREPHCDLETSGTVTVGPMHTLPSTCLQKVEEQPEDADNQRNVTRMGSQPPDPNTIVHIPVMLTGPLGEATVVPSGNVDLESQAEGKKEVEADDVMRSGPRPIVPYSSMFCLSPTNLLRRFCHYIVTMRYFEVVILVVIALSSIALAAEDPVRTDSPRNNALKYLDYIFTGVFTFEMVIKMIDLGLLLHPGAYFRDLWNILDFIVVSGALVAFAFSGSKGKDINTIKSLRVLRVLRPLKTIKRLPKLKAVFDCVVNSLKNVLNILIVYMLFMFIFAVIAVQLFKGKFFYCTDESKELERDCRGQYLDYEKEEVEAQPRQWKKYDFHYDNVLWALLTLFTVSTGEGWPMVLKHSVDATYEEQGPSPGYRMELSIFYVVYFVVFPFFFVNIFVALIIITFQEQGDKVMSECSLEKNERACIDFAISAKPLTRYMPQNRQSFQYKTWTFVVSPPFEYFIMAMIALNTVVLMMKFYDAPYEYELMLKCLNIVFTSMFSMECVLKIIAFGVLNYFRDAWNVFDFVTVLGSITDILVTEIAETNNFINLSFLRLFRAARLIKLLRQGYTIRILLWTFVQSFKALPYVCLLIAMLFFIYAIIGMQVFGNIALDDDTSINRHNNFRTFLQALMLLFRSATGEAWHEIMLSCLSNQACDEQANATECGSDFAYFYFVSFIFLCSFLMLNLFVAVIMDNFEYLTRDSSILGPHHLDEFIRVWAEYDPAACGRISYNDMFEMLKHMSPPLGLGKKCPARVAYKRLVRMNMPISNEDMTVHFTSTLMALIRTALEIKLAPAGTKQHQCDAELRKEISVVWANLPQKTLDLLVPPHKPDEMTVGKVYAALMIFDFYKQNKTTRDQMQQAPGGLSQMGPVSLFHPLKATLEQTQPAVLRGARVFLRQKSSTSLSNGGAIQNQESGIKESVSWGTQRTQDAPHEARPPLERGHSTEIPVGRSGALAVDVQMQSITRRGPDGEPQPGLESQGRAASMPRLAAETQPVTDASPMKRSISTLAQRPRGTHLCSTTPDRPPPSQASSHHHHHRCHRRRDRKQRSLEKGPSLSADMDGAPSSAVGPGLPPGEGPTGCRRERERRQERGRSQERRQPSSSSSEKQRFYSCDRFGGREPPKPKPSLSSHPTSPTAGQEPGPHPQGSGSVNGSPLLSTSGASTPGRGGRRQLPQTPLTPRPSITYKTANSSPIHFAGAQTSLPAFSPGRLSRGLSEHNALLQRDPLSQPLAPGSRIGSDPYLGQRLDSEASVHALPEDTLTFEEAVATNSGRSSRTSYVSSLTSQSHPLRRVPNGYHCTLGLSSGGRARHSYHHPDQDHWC
Sequence (P54289 25-956 partner limits assumed): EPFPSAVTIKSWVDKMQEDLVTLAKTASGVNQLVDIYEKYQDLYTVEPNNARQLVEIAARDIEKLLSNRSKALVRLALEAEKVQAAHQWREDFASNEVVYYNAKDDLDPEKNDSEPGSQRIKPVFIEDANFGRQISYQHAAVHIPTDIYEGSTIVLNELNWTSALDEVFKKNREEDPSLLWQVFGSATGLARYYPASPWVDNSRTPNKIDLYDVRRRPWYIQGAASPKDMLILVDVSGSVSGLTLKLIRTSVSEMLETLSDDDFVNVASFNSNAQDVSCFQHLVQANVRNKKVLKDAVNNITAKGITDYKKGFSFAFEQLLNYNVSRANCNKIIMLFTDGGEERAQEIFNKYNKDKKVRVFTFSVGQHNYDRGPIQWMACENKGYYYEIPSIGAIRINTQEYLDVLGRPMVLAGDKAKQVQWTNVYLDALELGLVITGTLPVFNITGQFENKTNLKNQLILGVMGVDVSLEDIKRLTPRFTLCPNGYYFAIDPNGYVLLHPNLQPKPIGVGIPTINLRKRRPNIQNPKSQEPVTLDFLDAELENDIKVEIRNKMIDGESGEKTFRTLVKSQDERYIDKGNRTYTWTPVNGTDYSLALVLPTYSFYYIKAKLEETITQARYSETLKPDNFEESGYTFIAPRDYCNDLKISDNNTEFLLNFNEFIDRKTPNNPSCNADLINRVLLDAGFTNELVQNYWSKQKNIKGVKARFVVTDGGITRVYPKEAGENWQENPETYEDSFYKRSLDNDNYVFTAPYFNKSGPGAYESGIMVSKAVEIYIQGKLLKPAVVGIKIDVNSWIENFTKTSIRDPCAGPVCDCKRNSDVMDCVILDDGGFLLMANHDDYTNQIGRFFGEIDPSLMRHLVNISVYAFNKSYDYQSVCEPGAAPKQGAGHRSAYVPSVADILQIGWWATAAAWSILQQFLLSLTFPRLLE
Sequence (P54289 957-1103 partner limits assumed): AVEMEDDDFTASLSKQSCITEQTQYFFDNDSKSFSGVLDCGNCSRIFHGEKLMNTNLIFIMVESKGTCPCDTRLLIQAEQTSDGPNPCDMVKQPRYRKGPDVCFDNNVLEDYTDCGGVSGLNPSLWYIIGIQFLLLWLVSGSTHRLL
Sequence (P54284 whole entry partner): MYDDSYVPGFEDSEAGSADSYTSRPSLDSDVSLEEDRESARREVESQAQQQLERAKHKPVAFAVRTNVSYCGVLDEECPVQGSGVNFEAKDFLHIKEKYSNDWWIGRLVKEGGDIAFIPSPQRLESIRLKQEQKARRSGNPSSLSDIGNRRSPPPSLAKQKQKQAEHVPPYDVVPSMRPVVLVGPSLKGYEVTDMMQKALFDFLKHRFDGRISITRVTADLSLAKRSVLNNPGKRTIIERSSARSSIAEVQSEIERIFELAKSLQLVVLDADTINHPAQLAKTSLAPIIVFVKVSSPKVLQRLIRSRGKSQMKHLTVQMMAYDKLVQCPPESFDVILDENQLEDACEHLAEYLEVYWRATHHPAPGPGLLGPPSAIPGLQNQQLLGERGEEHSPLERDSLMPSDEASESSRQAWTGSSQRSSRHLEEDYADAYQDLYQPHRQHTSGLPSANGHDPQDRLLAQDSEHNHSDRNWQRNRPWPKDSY

{"molecule": "COc1cc2c(cc1OC)C(c1ccc(Oc3ccc(C(F)(F)F)cc3)cc1)=NCC2 [Example 6]", "experimental-target": "N-type calcium channels in HEK-293 cell (Homo sapiens)", "IC50 / µM": 0.94}
{"molecule": "COc1cc2c(cc1OC)C(C)(C)CN=C2c1ccc(Oc2ccc(C(F)(F)F)cc2)cc1 [Example 5]", "experimental-target": "N-type calcium channels in HEK-293 cell (Homo sapiens)", "IC50 / µM": 0.82}
{"molecule": "CCCCCCOc1ccc(C2=NCC(C)(C)c3ccccc32)cc1 [Example 11]", "experimental-target": "N-type calcium channels in HEK-293 cell (Homo sapiens)", "IC50 / µM": 3.26}
{"molecule": "COc1cc2c(c(OC)c1OC)CCN=C2c1ccc(Oc2ccccc2)cc1 [Example 3]", "experimental-target": "N-type calcium channels in HEK-293 cell (Homo sapiens)", "IC50 / µM": 1.94}
{"molecule": "CCCCCCOc1ccc(C2=NCCc3cc(OC)c(OC)cc32)cc1 [Example 2]", "experimental-target": "N-type calcium channels in HEK-293 cell (Homo sapiens)", "IC50 / µM": 1.2}
{"molecule": "COc1cc2c(cc1OC)C(C)(C)CN=C2c1ccccc1Oc1cc(C(F)(F)F)cc(C(F)(F)F)c1 [Example 8]", "experimental-target": "N-type calcium channels in HEK-293 cell (Homo sapiens)", "IC50 / µM": 3.16}
